Source listed as PubChem BioAssay AID226.

# Test system: B6C3F1 mice, intracerebral ependymoblastoma, median survival T/C
# PROTOCOL_DETAILS: NCI In Vivo Anticancer Drug Screen. Data for tumor model Ependymoblastoma (intracerebral) in B6C3F1 mice
# STUDY_CONDITIONS: endpoint: median survival time; dose: 50.0 mg/kg/injection; schedule: Q01DX005 (ip); vehicle: saline with Tween-80; higher = longer survival
Toxic doses and inconclusive results are not listed.
QUANTITY: T/C

[
  {
    "COMPOUND": "Nc1nc(=S)c2ncn(C3OC(COC(=O)c4ccccc4)C(OC(=O)c4ccccc4)C3OC(=O)c3ccccc3)c2[nH]1 (stereo not drawn)",
    "TESTED_ON": "B6C3F1 mice, intracerebral ependymoblastoma, median survival T/C",
    "ASSAY_RESULT": "105 % of control"
  },
  {
    "COMPOUND": "NC(=S)Nc1cccc2ccccc12",
    "TESTED_ON": "B6C3F1 mice, intracerebral ependymoblastoma, median survival T/C",
    "ASSAY_RESULT": "91 % of control"
  },
  {
    "COMPOUND": "CCCC(=O)OCC1OC(n2cnc3c(=S)nc[nH]c32)C(OC(=O)CCC)C1OC(=O)CCC (stereo not drawn)",
    "TESTED_ON": "B6C3F1 mice, intracerebral ependymoblastoma, median survival T/C",
    "ASSAY_RESULT": "105 % of control"
  },
  {
    "COMPOUND": "Nc1ccc(S(=O)(=O)c2ccc(N)cc2)cc1",
    "TESTED_ON": "B6C3F1 mice, intracerebral ependymoblastoma, median survival T/C",
    "ASSAY_RESULT": "100 % of control"
  },
  {
    "COMPOUND": "Cc1cnc(/C=N\\NC(N)=S)c2cccc(N)c12",
    "TESTED_ON": "B6C3F1 mice, intracerebral ependymoblastoma, median survival T/C",
    "ASSAY_RESULT": "104 % of control"
  },
  {
    "COMPOUND": "CCCCC(=O)OCC1OC(n2cnc3c(=S)nc[nH]c32)C(OC(=O)CCCC)C1OC(=O)CCCC (stereo not drawn)",
    "TESTED_ON": "B6C3F1 mice, intracerebral ependymoblastoma, median survival T/C",
    "ASSAY_RESULT": "99 % of control"
  },
  {
    "COMPOUND": "O=[n+]1c2ccccc2n([O-])c2cc(Cl)ccc21",
    "TESTED_ON": "B6C3F1 mice, intracerebral ependymoblastoma, median survival T/C",
    "ASSAY_RESULT": "95 % of control"
  },
  {
    "COMPOUND": "CC(C)(N)C(=O)O",
    "TESTED_ON": "B6C3F1 mice, intracerebral ependymoblastoma, median survival T/C",
    "ASSAY_RESULT": "114 % of control"
  }
]

====

# Tested on: B6C3F1 mice, intracerebral ependymoblastoma, median survival T/C
# PROTOCOL_DETAILS: NCI In Vivo Anticancer Drug Screen. Data for tumor model Ependymoblastoma (intracerebral) in B6C3F1 mice
# STUDY_CONDITIONS: endpoint: median survival time; dose: 64.0 mg/kg/injection; schedule: Q01DX005 (ip); vehicle: Klucel (hydroxypropylcellulose) (HPC)
# Description: The antitumor activity of compounds was measured in mice bearing transplantable tumors. Survival or tumor size were measured and the results are expressed as the measurement made in the treated group (T) divided by the measurement made in the vehicle treated control group (C). The tumor model used in this assay is Ependymoblastoma (intracerebral) in B6C3F1 mice
Toxic doses and inconclusive results are not listed. Rule for the calls: active = survival T/C of 150% or more; inactive = T/C below 125% in these data.
Possible outcomes: 1 (active), -1 (inactive)

[
  {
    "MOLECULE": "CC(C)=CCC1=C(O)c2ccccc2C(=O)C1=O",
    "GROUP_LABEL": -1
  },
  {
    "MOLECULE": "CCC(=O)O[C@H]1CC[C@H]2[C@@H]3CCC4=CC(=O)CC[C@]4(C)[C@H]3CC[C@]12C",
    "GROUP_LABEL": -1
  },
  {
    "MOLECULE": "CCOC(=O)C(CC(C)C)NC(=O)C(Cc1ccc(N(CCCl)CCCl)cc1)NC(C)=O (configuration not stated)",
    "GROUP_LABEL": -1
  },
  {
    "MOLECULE": "CNNCc1ccc(C(=O)NC(C)C)cc1",
    "GROUP_LABEL": 1
  },
  {
    "MOLECULE": "COc1cc2c(c3c1c(=O)c1ccccc1n3C)C=CC(C)(C)O2",
    "GROUP_LABEL": -1
  },
  {
    "MOLECULE": "Nc1ncnc2nc[nH]c12",
    "GROUP_LABEL": -1
  },
  {
    "MOLECULE": "CN(Cc1cnc2nc(N)nc(N)c2n1)c1c(Cl)cc(C(=O)NC(CCC(=O)O)C(=O)O)cc1Cl (configuration not stated)",
    "GROUP_LABEL": -1
  }
]

====

# Tested on: B6C3F1 mice, intracerebral ependymoblastoma, median survival T/C
# PROTOCOL_DETAILS: NCI In Vivo Anticancer Drug Screen. Data for tumor model Ependymoblastoma (intracerebral) in B6C3F1 mice
# STUDY_CONDITIONS: endpoint: median survival time; dose: 128.0 mg/kg/injection; schedule: Q01DX005 (ip); vehicle: saline with Tween-80
Toxic doses and inconclusive results are not listed. How the source made its calls: active means survival T/C of 150% or more; inactive means T/C below 125% in these data.
Labels: TRUE (active), FALSE (inactive)

[
  {
    "COMPOUND": "O=c1ccn(C2OC(CO)C(O)C2O)c(=O)[nH]1 (configuration not stated)",
    "GROUP_LABEL": "FALSE"
  },
  {
    "COMPOUND": "CC1=C(/C=C/C(C)=C/C=C/C(C)=C/C(=O)O)C(C)(C)CCC1",
    "GROUP_LABEL": "FALSE"
  },
  {
    "COMPOUND": "CCC(C)N(C)/N=N/c1nc[nH]c1C(N)=O (configuration not stated)",
    "GROUP_LABEL": "TRUE"
  },
  {
    "COMPOUND": "CCCCN(C)N=Nc1ccc([N+](=O)[O-])cc1C(N)=O",
    "GROUP_LABEL": "TRUE"
  },
  {
    "COMPOUND": "CC/C(=C(/CC)c1ccc(O)cc1)c1ccc(O)cc1",
    "GROUP_LABEL": "FALSE"
  },
  {
    "COMPOUND": "CCCCCN(C)/N=N/c1nc[nH]c1C(N)=O",
    "GROUP_LABEL": "TRUE"
  },
  {
    "COMPOUND": "CN(C)/N=N/c1[nH]ncc1C(N)=O",
    "GROUP_LABEL": "TRUE"
  },
  {
    "COMPOUND": "CC(=O)OCC1C(=O)OCC1C(=O)N1Cc2cc3ccccc3nc2C1 (configuration not stated)",
    "GROUP_LABEL": "FALSE"
  },
  {
    "COMPOUND": "Nc1nc2c(c(=O)[nH]1)N(C=O)C(CNc1ccc(C(=O)N[C@@H](CCC(=O)O)C(=O)O)cc1)CN2 (some centres not stated)",
    "GROUP_LABEL": "FALSE"
  },
  {
    "COMPOUND": "O=C(N/N=C\\c1cc(Br)cc(Br)c1O)N/N=C/c1cc(Br)cc(Br)c1O",
    "GROUP_LABEL": "FALSE"
  },
  {
    "COMPOUND": "C#CCN(C)/N=N/c1nc[nH]c1C(N)=O",
    "GROUP_LABEL": "TRUE"
  },
  {
    "COMPOUND": "CN(C)/N=N/c1nc[nH]c1C(N)=O",
    "GROUP_LABEL": "TRUE"
  }
]

====

# Tested on: B6C3F1 mice, intracerebral ependymoblastoma, median survival T/C
# PROTOCOL_DETAILS: NCI In Vivo Anticancer Drug Screen. Data for tumor model Ependymoblastoma (intracerebral) in B6C3F1 mice
# STUDY_CONDITIONS: endpoint: median survival time; dose: 256.0 mg/kg/injection; schedule: Q01DX005 (ip); vehicle: saline with Tween-80
Inconclusive results and toxic doses are left out. How the source made its calls: active means survival T/C of 150% or more; inactive means T/C below 125% in these data.
Outcome codes: 1.0 = active, 0.0 = inactive

[
  {
    "COMPOUND": "C[C@]12C=CC(=O)C=C1CC[C@@H]1[C@@H]2CC[C@]2(C)OC(=O)CC[C@@H]12",
    "GROUP_LABEL": 0.0
  },
  {
    "COMPOUND": "Nc1nc2c(c(=O)[nH]1)N(C=O)C(CNc1ccc(C(=O)N[C@@H](CCC(=O)O)C(=O)O)cc1)CN2 (stereo partly drawn)",
    "GROUP_LABEL": 0.0
  },
  {
    "COMPOUND": "O=c1[nH]c(=O)n([C@H]2CCCO2)cc1F",
    "GROUP_LABEL": 0.0
  },
  {
    "COMPOUND": "CN(C)N=Nc1ccc([N+](=O)[O-])cc1C(N)=O",
    "GROUP_LABEL": 1.0
  },
  {
    "COMPOUND": "NC(C/[N+]([O-])=N/O)C(=O)O (stereo not drawn)",
    "GROUP_LABEL": 0.0
  },
  {
    "COMPOUND": "O=C(N/N=C\\c1cc(Br)cc(Br)c1O)N/N=C/c1cc(Br)cc(Br)c1O",
    "GROUP_LABEL": 0.0
  },
  {
    "COMPOUND": "CCCCN(C)N=Nc1ccc([N+](=O)[O-])cc1C(N)=O",
    "GROUP_LABEL": 1.0
  },
  {
    "COMPOUND": "O=c1ccn(C2OC(CO)C(O)C2O)c(=O)[nH]1 (stereo not drawn)",
    "GROUP_LABEL": 0.0
  }
]
